test: in vitro; conditions: human, hela cells
Parameter viability at 28.5 h, 10 µM: see the listing below.
QUANTITY KIND: viability at 28.5 h, 10 µM (%)

>>> result("O=P(O)(O)CCCc1ccccc1 [CBK012021]")
80.5
>>> result("C=CCSc1nnc(OC(=O)N(C)C)n1-c1ccc(Cl)cc1 [CBK004817]")
90.8
>>> result("N#CC(CCCN1CCC(O)(c2ccccc2)CC1)(c1ccccc1)c1ccccc1 [CBK002145]")
105
>>> result("O=C(O)CP(=O)(O)c1ccc(Cl)cc1 [CBK019291]")
102
>>> result("COc1ccc(C(=O)Oc2ccc(C(c3c(C)n[nH]c3O)c3c(C)n[nH]c3O)cc2)cc1 [CBK264740]")
112
>>> result("Nc1nonc1OCC(COc1nonc1N)(COc1nonc1N)COc1nonc1N [CBK011044]")
85.6
>>> result("CCn1cc(C(=O)O)c(=O)c2cc(F)c(NC3CCCCC3)cc21 [CBK286635]")
89.2
>>> result("CNC(=O)Oc1ccc(C2(C)SCCS2)cc1 [CBK023078]")
98.9
>>> result("CN(C)C(=O)OCCn1c(=O)oc2cc(Cl)ccc21 [CBK306455]")
81.9
>>> result("O=C(/C=C/c1ccc(N2N=N2)cc1)/C=C/c1ccc(N2N=N2)cc1 [CBK261638]")
105
>>> result("CNC(=O)Oc1ccccc1/C=N/N(C)C [CBK023194]")
97.5
>>> result("O=C(Nc1ccc(OC(=O)N2CCCCC2)cc1)N1CCCCC1 [CBK090060]")
88.6
>>> result("CN(C)C(=O)Oc1ccc2[nH]c3c(c2c1)CCNC31CCN(CCOc2ccccc2)C1 (stereo not shown) [CBK107679]")
95.1

* * *

Below, each entry is listed alongside its reported viability at 28.5 h, 10 µM.
test: in vitro; conditions: human, hela cells, % viability
QUANTITY KIND: viability at 28.5 h, 10 µM

>>> result("CN(C)CC(C)(C)CNC(=O)C1=CC(=O)CC(C)(C)O1")
"103%"
>>> result("c1ccc(C(Oc2nccnc2-c2ccsc2)c2ccccc2)cc1")
"103%"
>>> result("C(=C\\c1ccc(-c2nnc(CSCCOc3ccccc3)o2)cc1)/CN1CCCC1")
"98.5%"
>>> result("O=C(CSc1nnc(-c2ccc(Cl)cc2)n1-c1ccccc1)N/N=C/c1ccccn1")
"94.6%"
>>> result("CN(C)CCN1CCN(c2nc(-c3ccc4c(c3)OCO4)cnc2N)CC1")
"93.9%"
>>> result("O=[N+]([O-])c1ccc(S(=O)(=O)CC(CN2CCCC2)N2CCCC2)cc1 (stereo not shown)")
"112%"
>>> result("Cc1cc(C(=O)Nc2nncs2)c2ccc(F)cc2n1")
"85.3%"
>>> result("CC(=O)Nc1cccc(-n2c(C)nnc2SCC2CCCCC2)c1")
"86.3%"
>>> result("COc1cc(NC(=O)c2ccc3c(c2)C(=O)N(c2c(C)cc(C)cc2C)C3=O)c(C(=O)O)cc1OC")
"91.1%"
>>> result("Cc1cc(C)n(C2CCN(Cc3cnn(C4CCCCC4)c3)CC2)n1")
"89.2%"
>>> result("CC(=O)NCCNC(=O)c1ccc(-c2cnc(OCC3CCN(C(=O)OC(C)(C)C)CC3)nc2)cn1")
"104%"
>>> result("O=C(Cn1cc(-c2ccc(CN3CCOCC3)cc2)nn1)NCc1cccc(C(F)(F)F)c1")
"87.5%"
>>> result("COc1ccc(OC)c(S(=O)(=O)N2CC[C@H]3CC(=O)N(CCN(C)C)CC[C@H]3C2)c1")
"104%"
>>> result("O=C(O)CCc1ccc(-c2ccc(Nc3cccnc3)nc2)cc1")
"106%"
>>> result("CCN1CCc2cc(-c3cncn3CC(=O)NC(C)(C)C)ccc21")
"94.8%"
>>> result("O=C(O)c1ccccc1-c1ccccc1C(=O)NCCCO")
"92.3%"
>>> result("O=C(Cc1ccsc1)Nc1snnc1-c1ccc(Cl)cc1")
"94.5%"
>>> result("CC12CCC(=O)N1CCCN2 (stereo not shown) [CBK067102T]")
"94.5%"
>>> result("CC(C)Nc1cncc(Sc2cccc(C(=O)O)c2)n1")
"95.1%"

* * *

Recorded viability at 28.5 h, 10 µM values for a group of compounds are listed next.
assay: in vitro; conditions: human, hela cells, % viability
QUANTITY KIND: viability at 28.5 h, 10 µM (%)

>>> result("COc1cc2c(cc1-c1nccn1CC1CN(C(C)=O)CCO1)CCC2 (stereo not shown) [CBK306850]")
88.7
>>> result("Cc1ccc(-c2nnc(CNC(=O)c3ccc(F)c(F)c3)o2)s1 [CBK284647]")
90.5
>>> result("COc1ccc([C@@]23CC[C@@H](CNC(=O)c4ccc(C(F)(F)F)cc4)C[C@@H]2N(C)CC3)cc1OC [CBK042195]")
107
>>> result("CC1=CC(C)C2(COC(=O)Nc3ccccc3)COC(c3cccnc3)C1C2C (stereo not shown) [CBK262844]")
86.2
>>> result("Clc1ccc(COc2cccc(CNCCN3CCOCC3)c2)cc1 [CBK278227C]")
85
>>> result("O=C(COc1ccccc1[N+](=O)[O-])Nc1cc(-c2nc3cc(Cl)ccc3o2)ccc1Cl [CBK268639]")
116
>>> result("CCNC(=O)N[C@H]1CO[C@H]2[C@@H]1OC[C@@H]2Nc1nccc(-c2ccc(OC)cc2)n1 [CBK289528]")
89.3
>>> result("Cc1cc(C)n(CCNC(=O)c2ncoc2-c2ccc(F)cc2)n1 [CBK282356]")
83.2
>>> result("O=C(O)c1ccc(-c2ccc(N3CCN(C(=O)c4ccco4)CC3)nc2)cc1 [CBK037700]")
97.9
>>> result("O=S1(=O)CCC(Sc2nncc3ccccc23)C1 (stereo not shown) [CBK021586]")
92.2
>>> result("C=CCn1c(Cc2csc(NC(=O)c3cc(S(=O)(=O)NC)ccc3C)n2)n[nH]c1=S [CBK297903]")
105
>>> result("NC(=O)c1c(NC(=O)c2ccc3ncsc3c2)sc2c1CCCC2 [CBK287369]")
94.4
>>> result("Cc1cccc(CN(CC(=O)Nc2ccc(F)cc2F)S(=O)(=O)c2ccc(Cl)cc2)c1 [CBK265164]")
84.9
>>> result("CCSC(SCC)c1ccnn1-c1ccccc1 [CBK019332]")
87.1
>>> result("COCC(O)CN(C)C(=O)c1ccc(Oc2cccc(Br)c2)nc1 (stereo not shown) [CBK304229]")
94
>>> result("CC(C)CNc1nc(-c2cc(C(F)(F)F)cc(C(F)(F)F)c2)cnc1N [CBK063708]")
85.7
>>> result("N#CCCN1CCC2(CC1)NCCc1c2[nH]c2ccccc12 [CBK039788]")
89
>>> result("CCC(NC(=O)C1(Cn2ccnc2)CC1)c1ncccc1C (stereo not shown) [CBK307046]")
119
>>> result("Cc1ccc2ccc(S(=O)(=O)NCc3cccnc3)cc2c1 [CBK262072]")
98.8

* * *

test: in vitro; conditions: human, hela cells, % viability
Entries and their viability at 28.5 h, 10 µM values follow.
QUANTITY KIND: viability at 28.5 h, 10 µM (%)

>>> result("CC1CCc2c(sc(NC(=O)COc3ccccc3)c2C(=O)Nc2ccccc2Cl)C1 (centres unmarked)")
101
>>> result("C=Cn1ncc(CN(CCCN(C)C)Cc2ccco2)c1C")
96.8
>>> result("c1ccc2c(Sc3nccnc3N3CCCC3)cccc2c1")
89.2
>>> result("CCN(CC)C(=O)CN1C(=O)N2CCCN=C2c2ccc(Cl)cc21")
91.7
>>> result("Cc1nc(C2CCCCN2C(=O)C2CCCCC2)ncc1C(=O)NCc1ccc(F)cc1 (centres unmarked)")
86.5
>>> result("COc1cccc(CNc2ccc(S(N)(=O)=O)cc2)c1OCc1ccccc1F")
108
>>> result("Cc1ccc(NC(=O)c2cnccn2)c(C)n1")
97.2
>>> result("OCCn1nc(C2CCCC2)nc1CCc1c[nH]c2ccccc12")
85.1
>>> result("O=[N+]([O-])c1ccc(CN2CCN(C3CCN(Cc4ccccc4)CC3)CC2)cc1 [CBK264310G]")
98.5
>>> result("Cc1oc2ccc(O)cc2c1C(=O)N(C)C(C)Cc1ccccn1 (centres unmarked)")
96.2
>>> result("Cc1cc(CC(=O)NCCc2c[nH]c3ccc(Cl)cc23)on1")
86.4
>>> result("COc1ccc(NC(=O)c2cc(C(C)C)n(-c3nc4ccccc4s3)n2)cc1")
100
>>> result("COc1ccc(-c2ccc(-c3cc(C(=O)O)c4ccccc4n3)o2)cc1")
75.5
>>> result("Cc1ccc(-c2csc(NC(=O)CN3C(=O)CCC3=O)n2)c(C)c1")
86.7
>>> result("Cc1sc(NC(=O)c2ccccc2)c(C(Nc2ccccn2)c2ccc(F)cc2)c1C (centres unmarked)")
89.7
>>> result("COc1ccc(-c2cc(C(=O)Nc3ccc4ncccc4c3)cnc2-c2ccccc2)cc1")
106
>>> result("CC(C)C1SC(=NC2CC3CCC2C3)N(C)C1=O (centres unmarked)")
90.6
>>> result("OCC1CCCN(Cc2c(C3CCCC3)[nH]c3ncccc23)C1 (centres unmarked)")
96.1
>>> result("COc1cnc(-c2cc(Cl)cc(Cl)c2)c(NC(=O)c2ccsc2)n1")
87.8
>>> result("CCCC/C=C/c1cncc(Nc2cc(OC)c(OC)c(OC)c2)n1")
102
>>> result("CCc1noc(C)c1C(=O)N1CCN(C(C#N)C2CCCCC2)CC1 (centres unmarked)")
88.8
>>> result("COCCc1noc(CC2CCN(c3nc(C)cc(C#N)n3)CC2)n1")
88.5
>>> result("COc1ccc(C(C)C)cc1-c1cncc(N(C)CCN(C)C)n1")
105
>>> result("CC(Sc1nc(N)cc(N)n1)C(=O)c1ccc(F)c(F)c1 (centres unmarked)")
94.7
>>> result("Cc1ccccc1N1C(=O)c2ccc(C(=O)OCC(=O)c3ccc(Cl)c([N+](=O)[O-])c3)cc2C1=O")
91.3
>>> result("NCCn1cc(C(=O)N2Cc3cnn(Cc4ccc(F)cc4)c3C2)nn1")
107
>>> result("O=C1CCC(=O)N1CCOc1nccnc1OC1CCN(Cc2cccnc2)CC1")
107
>>> result("NC(=O)C1(Cc2ccc(-c3ccccc3)cc2)CCN(C(=O)c2ccccc2)CC1")
95.1
>>> result("Cc1cc(NC(=O)c2cc(Br)cnc2NCc2cccnc2)n(C)n1")
90.7
>>> result("CN1C(=O)CC(Sc2ccccc2C(=O)O)C1=O (centres unmarked)")
89.5
>>> result("CCOc1ccc(Cl)cc1CN(C)C(=O)NCC(c1ccco1)N(C)C (centres unmarked)")
88
>>> result("O=C(CSc1nnc(-c2ccccc2)n1-c1ccccc1)N/N=C/c1coc2ccccc2c1=O")
97.6
>>> result("O=C(CCC(=O)c1ccc2c(c1)OCCO2)OCC(=O)c1ccc(Cl)c(Cl)c1")
87.5
>>> result("O=S(=O)(c1ccc(F)cc1)N1CCCC1c1cccc(Cc2ccc(F)cc2)n1 (centres unmarked)")
88
>>> result("NC1=NC(=O)C2(COC(c3cccnc3)OC2)S1 (centres unmarked)")
91.3
>>> result("CCOC(=O)c1sc2nc(C)ccc2c1N")
96.5
>>> result("C#CCOc1ccc(/C=N/N=C(\\N)c2nonc2N)cc1OC")
109
>>> result("CC(C)COC(=O)N1CCC(C(=O)NC(c2ccc(Cl)cc2)c2cnccn2)CC1 (centres unmarked)")
99.2
